test system: XIP peptide (Xip251-270) binding; experiment: small-molecule binders of XIP peptide, primary screen, biochemical, small-molecule microarray, fluorescence 635/667 nm, 0.1 µg/mL protein (AID 1182); settings: fluorescent protein binding, 635 nm, higher = more signal, called active from +8 up or from −8 down
Tick Satisfied if composite z-score is 0.2 or greater. Tick Not satisfied if composite z-score is less than 0.2.

- COC(=O)[C@H](C)NC(=O)CCC1CC(OC(=O)NCc2ccc3c(c2)OCO3)CC2(CCCC(COC(=O)NCCC(C)C)O2)O1 (stereo partly specified): Satisfied
- CCCC[C@H]1CN2[C@@H](CC[C@@H](C)[C@@H]2c2ccc(Br)cc2)C(=O)O1: Satisfied
- CO[C@H]1COC(=O)CCC[C@H](C)[C@H](OC)COC(=O)CC=C[C@@H]1C: Satisfied
- C[C@@H]1CC[C@H]2C(=O)O[C@@H](COc3ccc(C(C)(C)C)cc3)CN2[C@H]1c1ccc(Br)cc1: Not satisfied
- O=C1[C@H]2[C@H]3[C@H](O)[C@H](O)CC(=NOC[C@@H](O)COCc4ccco4)[C@@H]3CC[C@H]2C(=O)N1Cc1ccc2c(c1)OCO2: Not satisfied
- CC1(C)O[C@H]2OC([C@H](O)CON3C(=O)c4ccccc4C3=O)[C@H](O)[C@H]2O1 (stereo partly specified): Not satisfied

src = PubChem BioAssay
